Measurement target: E. coli Topoisomerase IV ATPase (Escherichia coli, UniProt P20083)
Sequence (P0AFI2 whole entry): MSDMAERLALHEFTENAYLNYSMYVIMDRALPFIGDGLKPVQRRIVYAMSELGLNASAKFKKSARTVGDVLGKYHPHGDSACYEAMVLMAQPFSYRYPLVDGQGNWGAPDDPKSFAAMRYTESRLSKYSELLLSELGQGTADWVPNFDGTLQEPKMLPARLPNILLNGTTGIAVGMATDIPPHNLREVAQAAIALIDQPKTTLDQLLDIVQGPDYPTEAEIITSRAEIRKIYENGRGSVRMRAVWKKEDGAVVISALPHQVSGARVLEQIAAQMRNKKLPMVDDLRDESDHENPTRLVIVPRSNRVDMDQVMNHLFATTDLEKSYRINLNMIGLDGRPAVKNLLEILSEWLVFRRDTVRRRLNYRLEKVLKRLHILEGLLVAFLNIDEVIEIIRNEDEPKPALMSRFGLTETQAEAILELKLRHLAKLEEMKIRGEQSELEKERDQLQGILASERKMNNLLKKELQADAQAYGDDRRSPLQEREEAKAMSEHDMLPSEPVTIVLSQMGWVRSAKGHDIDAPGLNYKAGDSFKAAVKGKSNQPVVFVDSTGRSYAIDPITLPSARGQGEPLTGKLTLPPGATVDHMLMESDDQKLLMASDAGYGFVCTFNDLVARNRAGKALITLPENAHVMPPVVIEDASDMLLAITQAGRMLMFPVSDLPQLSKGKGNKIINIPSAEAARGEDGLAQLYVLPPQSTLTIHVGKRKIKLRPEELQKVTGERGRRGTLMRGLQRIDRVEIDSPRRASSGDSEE
Sequence (P20083 whole entry): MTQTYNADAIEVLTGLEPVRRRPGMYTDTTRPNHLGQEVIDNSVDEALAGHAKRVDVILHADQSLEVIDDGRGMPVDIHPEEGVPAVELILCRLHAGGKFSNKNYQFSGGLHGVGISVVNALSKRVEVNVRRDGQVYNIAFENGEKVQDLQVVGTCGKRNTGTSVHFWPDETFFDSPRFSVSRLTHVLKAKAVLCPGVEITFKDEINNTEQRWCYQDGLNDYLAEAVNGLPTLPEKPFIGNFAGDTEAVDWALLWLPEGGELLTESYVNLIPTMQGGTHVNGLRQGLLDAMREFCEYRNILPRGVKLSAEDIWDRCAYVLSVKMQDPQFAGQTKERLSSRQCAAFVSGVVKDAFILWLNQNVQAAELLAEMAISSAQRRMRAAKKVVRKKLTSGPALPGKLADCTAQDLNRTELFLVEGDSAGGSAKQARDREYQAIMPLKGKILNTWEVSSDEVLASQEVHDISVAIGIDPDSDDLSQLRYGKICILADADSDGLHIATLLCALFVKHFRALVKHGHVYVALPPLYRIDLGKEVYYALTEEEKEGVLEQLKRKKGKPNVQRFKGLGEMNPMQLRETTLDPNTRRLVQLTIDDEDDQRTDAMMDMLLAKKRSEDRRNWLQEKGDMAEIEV
Assay: E. coli Topoisomerase IV ATPase inhibition
Assay type: biochemical
pIC50: −log10 of the molar value.
Property label: pIC50

# "CCNC(=O)Nc1cc(C#Cc2ccccn2)c(-c2cncc(-c3n[nH]c(=O)o3)c2)cn1" with E. coli Topoisomerase IV ATPase (Escherichia coli, UniProt P20083): pIC50 is > 3.70

====

Measurement target: UniProt P0AES6
pIC50: −log10 of the molar value.
Property label: pIC50

# "CCNC(=O)Nc1cc(C#Cc2ccccn2)c(-c2cncc(-c3n[nH]c(=O)o3)c2)cn1" with UniProt P0AES6: pIC50 is > 3.70
